All values here come from patent US10227324B2.

# IC50 per entry
# tgt: PI3K-δ kinase (p110δ/p85α) (Homo sapiens, UniProt O00329)
# Construct: purchased Millipore 14-604M
# Sequence (O00329 whole entry): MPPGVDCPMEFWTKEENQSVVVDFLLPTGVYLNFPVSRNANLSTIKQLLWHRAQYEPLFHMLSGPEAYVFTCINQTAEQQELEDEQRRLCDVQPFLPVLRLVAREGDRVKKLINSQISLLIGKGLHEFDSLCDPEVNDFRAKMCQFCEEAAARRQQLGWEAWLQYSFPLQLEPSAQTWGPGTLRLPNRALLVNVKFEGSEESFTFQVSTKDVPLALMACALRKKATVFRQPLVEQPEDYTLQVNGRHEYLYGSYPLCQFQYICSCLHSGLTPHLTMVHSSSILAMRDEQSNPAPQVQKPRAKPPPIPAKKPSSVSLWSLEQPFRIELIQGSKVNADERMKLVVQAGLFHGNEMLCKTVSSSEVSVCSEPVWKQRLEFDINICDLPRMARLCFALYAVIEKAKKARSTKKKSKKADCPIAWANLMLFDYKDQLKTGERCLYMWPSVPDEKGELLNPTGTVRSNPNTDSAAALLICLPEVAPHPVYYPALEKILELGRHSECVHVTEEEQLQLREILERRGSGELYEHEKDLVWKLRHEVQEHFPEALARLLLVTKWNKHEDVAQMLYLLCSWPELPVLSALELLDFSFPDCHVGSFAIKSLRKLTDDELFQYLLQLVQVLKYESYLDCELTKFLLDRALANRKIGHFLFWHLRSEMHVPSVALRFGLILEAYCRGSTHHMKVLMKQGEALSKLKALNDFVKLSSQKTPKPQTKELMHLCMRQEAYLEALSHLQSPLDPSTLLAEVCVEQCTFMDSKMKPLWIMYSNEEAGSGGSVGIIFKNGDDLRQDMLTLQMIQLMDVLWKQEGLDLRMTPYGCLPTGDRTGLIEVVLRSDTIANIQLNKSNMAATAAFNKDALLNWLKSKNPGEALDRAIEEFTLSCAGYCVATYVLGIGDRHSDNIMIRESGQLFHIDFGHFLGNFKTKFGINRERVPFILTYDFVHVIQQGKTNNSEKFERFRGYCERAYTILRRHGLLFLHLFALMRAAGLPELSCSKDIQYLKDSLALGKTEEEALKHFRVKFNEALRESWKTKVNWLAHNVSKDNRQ
# Sequence (P27986 whole entry partner): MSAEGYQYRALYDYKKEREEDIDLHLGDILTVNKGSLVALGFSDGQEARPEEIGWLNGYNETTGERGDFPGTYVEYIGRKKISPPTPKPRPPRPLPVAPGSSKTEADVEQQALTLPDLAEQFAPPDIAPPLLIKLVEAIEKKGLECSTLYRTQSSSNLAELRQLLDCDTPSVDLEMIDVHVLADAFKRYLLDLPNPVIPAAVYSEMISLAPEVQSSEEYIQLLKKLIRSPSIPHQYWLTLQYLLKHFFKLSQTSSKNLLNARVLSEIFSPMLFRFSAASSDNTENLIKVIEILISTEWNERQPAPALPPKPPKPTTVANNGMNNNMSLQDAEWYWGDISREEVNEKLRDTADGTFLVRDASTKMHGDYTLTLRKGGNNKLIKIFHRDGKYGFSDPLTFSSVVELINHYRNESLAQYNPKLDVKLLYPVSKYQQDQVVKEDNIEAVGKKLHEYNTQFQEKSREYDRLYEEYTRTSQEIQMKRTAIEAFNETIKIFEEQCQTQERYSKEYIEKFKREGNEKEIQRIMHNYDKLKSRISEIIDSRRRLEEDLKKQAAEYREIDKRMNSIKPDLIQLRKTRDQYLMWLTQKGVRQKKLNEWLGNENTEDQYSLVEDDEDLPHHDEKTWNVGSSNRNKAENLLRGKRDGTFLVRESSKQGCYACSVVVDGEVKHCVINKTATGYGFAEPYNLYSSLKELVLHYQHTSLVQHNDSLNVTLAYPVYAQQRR
# measurement.protocol: Determination of PI3K kinase activity (ADP Transcreener, fluorescence polarization)
# Assay type: biochemical
# recorded.conditions: Table 1; ATP 10 μM; read-out: PI3K-δ/nM (IC50 of inhibitory activity against PI3K kinase)
Number only, in nM; omit the unit.

{"columns": ["molecule", "tgt", "IC50, nM"],
 "data": [
  ["C[C@H]1COCCN1c1nc(-c2cnc(N)cc2C(F)(F)F)cc(C(C)(C)S(C)(=O)=O)n1", "PI3K-δ kinase (p110δ/p85α) (Homo sapiens, UniProt O00329)", 79],
  ["COC(C)(C)c1cc(-c2cnc(N)cc2C(F)(F)F)nc(N2CCOC[C@H]2C)n1", "PI3K-δ kinase (p110δ/p85α) (Homo sapiens, UniProt O00329)", 1010]
]}

Which IC50 value belongs to "C[C@H]1COCCN1c1nc(-c2cnc(N)nc2)cc(C2(S(C)(=O)=O)CCC2)n1" ?
58

Which IC50 value belongs to "CS(=O)(=O)C(F)(F)c1cc(-c2cnc(N)cc2C(F)(F)F)nc(N2CCOCC2)n1" ?
516

Which IC50 value belongs to "C[C@@H]1COCCN1c1nc(-c2cnc(N)cc2C(F)(F)F)cc(C(C)(C)O)n1" ?
370

====

# tgt: PI3K-α kinase (p110α/p85α) (Homo sapiens, UniProt P42336)
# Construct: purchased Invitrogen PV4788
# Sequence (P42336 whole entry): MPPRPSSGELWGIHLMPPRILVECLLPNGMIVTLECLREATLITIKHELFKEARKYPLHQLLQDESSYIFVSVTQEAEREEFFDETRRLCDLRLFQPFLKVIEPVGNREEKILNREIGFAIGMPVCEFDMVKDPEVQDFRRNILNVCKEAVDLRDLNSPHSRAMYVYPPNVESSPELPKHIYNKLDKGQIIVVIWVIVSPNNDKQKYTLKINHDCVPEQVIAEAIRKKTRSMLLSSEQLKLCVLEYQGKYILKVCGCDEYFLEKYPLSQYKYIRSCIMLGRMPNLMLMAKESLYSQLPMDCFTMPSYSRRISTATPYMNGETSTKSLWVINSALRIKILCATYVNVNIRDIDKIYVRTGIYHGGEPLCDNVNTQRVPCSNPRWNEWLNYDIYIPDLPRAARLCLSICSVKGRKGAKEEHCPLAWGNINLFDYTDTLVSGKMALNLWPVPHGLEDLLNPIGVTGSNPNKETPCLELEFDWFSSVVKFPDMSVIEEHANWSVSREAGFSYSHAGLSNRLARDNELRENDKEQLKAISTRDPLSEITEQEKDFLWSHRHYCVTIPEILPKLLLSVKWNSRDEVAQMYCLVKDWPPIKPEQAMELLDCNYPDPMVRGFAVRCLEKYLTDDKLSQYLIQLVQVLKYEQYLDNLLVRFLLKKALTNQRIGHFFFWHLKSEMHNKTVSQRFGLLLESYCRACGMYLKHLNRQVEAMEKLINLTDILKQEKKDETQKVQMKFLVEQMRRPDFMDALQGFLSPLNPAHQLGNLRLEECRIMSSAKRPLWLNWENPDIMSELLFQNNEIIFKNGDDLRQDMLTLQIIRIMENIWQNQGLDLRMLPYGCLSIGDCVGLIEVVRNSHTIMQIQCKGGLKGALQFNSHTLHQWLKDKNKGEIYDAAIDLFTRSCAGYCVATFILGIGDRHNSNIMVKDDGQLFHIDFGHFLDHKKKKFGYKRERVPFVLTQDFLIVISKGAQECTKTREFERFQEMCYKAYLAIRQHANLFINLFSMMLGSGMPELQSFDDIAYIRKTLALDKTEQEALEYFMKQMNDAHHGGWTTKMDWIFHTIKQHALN
# Sequence (P27986 whole entry partner): as the sequence (P27986 whole entry partner) above
# measurement.protocol: Determination of PI3K kinase activity (ADP Transcreener, fluorescence polarization)
# Type: biochemical
# recorded.conditions: Table 1; ATP 10 μM; read-out: PI3K-α/nM (IC50 of inhibitory activity against PI3K kinase)
# IC50 per entry
Number only, in nM; omit the unit.

Answered examples (6):
{"columns": ["compound", "result.unit", "IC50"],
 "data": [
  ["CS(=O)(=O)C1(c2cc(-c3cnc(N)cc3C(F)(F)F)nc(N3CCOCC3)n2)CCC1 [Compound S-4]", "nM", 12],
  ["CC(C)(O)c1cc(-c2cnc(N)cc2Cl)nc(N2CCOCC2)n1 [Compound S-63]", "nM", 21],
  ["CC(C)(O)c1cc(-c2cnc(N)nc2C(F)(F)F)nc(N2CCOCC2)n1 [Compound S-64]", "nM", 13],
  ["C[C@@H]1COCCN1c1nc(-c2cnc(N)cc2Cl)cc(C(C)(C)S(C)(=O)=O)n1 [Compound S-67]", "nM", 6],
  ["C[C@H]1COCCN1c1nc(-c2cnc(N)cc2Cl)cc(C(C)(C)O)n1 [Compound S-73]", "nM", 14],
  ["C[C@H]1COCCN1c1nc(-c2cnc(N)cc2Cl)cc(C2(S(C)(=O)=O)CCC2)n1 [Compound S-31]", "nM", 12]
]}

Which IC50 value belongs to Nc1cc(C(F)(F)F)c(-c2cc(C3(S(=O)(=O)c4ccccc4)CCC3)nc(N3CCOCC3)n2)cn1 [Compound S-20] ?
24

Which IC50 value belongs to C[C@H]1COCCN1c1nc(-c2ccc(N)nc2)cc(C2(S(C)(=O)=O)CCC2)n1 [Compound S-32] ?
76

====

# tgt: PI3K-γ kinase (p110γ) (Homo sapiens, UniProt P48736)
# Construct: purchased Invitrogen PV4786
# Sequence (P48736 whole entry): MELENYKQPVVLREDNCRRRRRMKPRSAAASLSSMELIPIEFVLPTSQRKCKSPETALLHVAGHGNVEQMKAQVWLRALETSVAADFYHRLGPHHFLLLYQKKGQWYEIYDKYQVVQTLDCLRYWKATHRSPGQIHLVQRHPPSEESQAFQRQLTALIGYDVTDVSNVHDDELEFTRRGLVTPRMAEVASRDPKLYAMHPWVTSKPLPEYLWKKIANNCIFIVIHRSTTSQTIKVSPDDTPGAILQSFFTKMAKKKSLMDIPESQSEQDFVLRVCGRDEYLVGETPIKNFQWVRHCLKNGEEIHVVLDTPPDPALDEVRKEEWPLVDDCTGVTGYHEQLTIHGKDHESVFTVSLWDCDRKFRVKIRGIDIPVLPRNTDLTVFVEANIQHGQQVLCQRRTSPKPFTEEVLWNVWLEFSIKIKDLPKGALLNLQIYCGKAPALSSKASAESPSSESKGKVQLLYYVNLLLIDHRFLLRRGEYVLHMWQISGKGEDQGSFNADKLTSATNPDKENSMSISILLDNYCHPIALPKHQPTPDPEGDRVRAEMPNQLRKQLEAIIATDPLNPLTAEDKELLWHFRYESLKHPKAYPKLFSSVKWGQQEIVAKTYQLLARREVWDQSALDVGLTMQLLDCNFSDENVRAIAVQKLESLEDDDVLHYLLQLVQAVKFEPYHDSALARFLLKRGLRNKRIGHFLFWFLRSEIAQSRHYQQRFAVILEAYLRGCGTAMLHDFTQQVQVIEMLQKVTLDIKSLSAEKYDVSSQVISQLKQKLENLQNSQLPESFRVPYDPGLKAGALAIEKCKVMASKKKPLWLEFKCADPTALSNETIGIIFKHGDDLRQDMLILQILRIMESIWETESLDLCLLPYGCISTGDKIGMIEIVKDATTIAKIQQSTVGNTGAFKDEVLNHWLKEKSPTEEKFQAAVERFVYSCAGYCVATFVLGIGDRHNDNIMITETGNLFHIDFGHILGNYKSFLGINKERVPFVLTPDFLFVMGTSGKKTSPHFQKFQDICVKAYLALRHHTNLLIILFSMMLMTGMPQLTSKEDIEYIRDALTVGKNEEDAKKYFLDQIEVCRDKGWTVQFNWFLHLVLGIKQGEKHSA
# measurement.protocol: Determination of PI3K kinase activity (ADP Transcreener, fluorescence polarization)
# Format: biochemical
# recorded.conditions: Table 1; ATP 10 μM; read-out: PI3K-γ/nM (IC50 of inhibitory activity against PI3K kinase)
# Method: The PI3K kinase used in the experiment: p110α/p85α (Invitrogen PV4788), p110β/p85α (Millipore 14-603), p110δ/p85α (Millipore 14-604M), and p110γ (Invitrogen PV4786). The inhibition of PI3K kinase activity by the compound to be tested was determined by the following method. […]
measurement.name: IC50

Answered examples (3):
{"columns": ["compound", "IC50"],
 "data": [
  ["CC(C)(c1cc(-c2cnc(N)cc2C(F)(F)F)nc(N2CCOCC2)n1)S(C)(=O)=O", "138 nM"],
  ["CC(C)(c1cc(-c2cnc(N)cc2F)nc(N2CCOCC2)n1)S(C)(=O)=O", "181 nM"],
  ["CCS(=O)(=O)C1(c2cc(-c3cnc(N)cc3F)nc(N3CCOCC3)n2)CC1", "244 nM"]
]}

Find IC50 (PI3K-γ kinase (p110γ) (Homo sapiens, UniProt P48736)) for the entry CS(=O)(=O)C(F)c1cc(-c2cnc(N)cc2C(F)(F)F)nc(N2CCOCC2)n1 (stereo not shown)
914 nM

Find IC50 (PI3K-γ kinase (p110γ) (Homo sapiens, UniProt P48736)) for the entry "Nc1cc(C(F)(F)F)c(-c2cc(C3(S(=O)(=O)c4ccccc4)CCC3)nc(N3CCOCC3)n2)cn1"
1160 nM

Find IC50 (PI3K-γ kinase (p110γ) (Homo sapiens, UniProt P48736)) for the entry "CS(=O)(=O)NC1(c2cc(-c3cnc(N)cc3C(F)(F)F)nc(N3CCOCC3)n2)CC1"
291 nM

Find IC50 (PI3K-γ kinase (p110γ) (Homo sapiens, UniProt P48736)) for the entry "C[C@@H]1COCCN1c1nc(-c2cnc(N)cc2Cl)cc(C(C)(C)S(C)(=O)=O)n1"
113 nM

Find IC50 (PI3K-γ kinase (p110γ) (Homo sapiens, UniProt P48736)) for the entry "CC(C)(c1cc(-c2cnc(N)nc2C(F)(F)F)nc(N2CCOCC2)n1)S(C)(=O)=O"
78 nM

Find IC50 (PI3K-γ kinase (p110γ) (Homo sapiens, UniProt P48736)) for the entry "C[C@H]1COCCN1c1nc(-c2cnc(N)cc2F)cc(C(C)(C)S(C)(=O)=O)n1"
219 nM

Find IC50 (PI3K-γ kinase (p110γ) (Homo sapiens, UniProt P48736)) for the entry "C[C@H]1COCCN1c1nc(-c2cnc(N)nc2C(F)(F)F)cc(C2(S(C)(=O)=O)CCC2)n1"
141 nM

Find IC50 (PI3K-γ kinase (p110γ) (Homo sapiens, UniProt P48736)) for the entry "CCS(=O)(=O)C(C)(C)c1cc(-c2cnc(N)cc2C(F)(F)F)nc(N2CCOCC2)n1"
256 nM

Find IC50 (PI3K-γ kinase (p110γ) (Homo sapiens, UniProt P48736)) for the entry "CCS(=O)(=O)C1(c2cc(-c3cnc(N)cc3C(F)(F)F)nc(N3CCOCC3)n2)CCC1"
2020 nM

Find IC50 (PI3K-γ kinase (p110γ) (Homo sapiens, UniProt P48736)) for the entry "CCS(=O)(=O)C1(c2cc(-c3cnc(N)cc3C(F)(F)F)nc(N3CCOCC3)n2)CC1"
765 nM

Find IC50 (PI3K-γ kinase (p110γ) (Homo sapiens, UniProt P48736)) for the entry "CS(=O)(=O)C1(c2cc(-c3cnc(N)nc3C(F)(F)F)nc(N3CCOCC3)n2)CC1"
96 nM

Find IC50 (PI3K-γ kinase (p110γ) (Homo sapiens, UniProt P48736)) for the entry "CS(=O)(=O)C(F)(F)c1cc(-c2cnc(N)cc2C(F)(F)F)nc(N2CCOCC2)n1"
287 nM

Find IC50 (PI3K-γ kinase (p110γ) (Homo sapiens, UniProt P48736)) for the entry "CS(=O)(=O)C1(c2cc(-c3cnc(N)cc3F)nc(N3CCOCC3)n2)CC1"
116 nM

Find IC50 (PI3K-γ kinase (p110γ) (Homo sapiens, UniProt P48736)) for the entry "C[C@H]1COCCN1c1nc(-c2ccc(N)nc2)cc(C2(S(C)(=O)=O)CCC2)n1"
923 nM

Find IC50 (PI3K-γ kinase (p110γ) (Homo sapiens, UniProt P48736)) for the entry "CC(C)(O)c1cc(-c2cnc(N)cc2Cl)nc(N2CCOCC2)n1"
428 nM

Find IC50 (PI3K-γ kinase (p110γ) (Homo sapiens, UniProt P48736)) for the entry "CC(C)S(=O)(=O)C1(c2cc(-c3cnc(N)cc3C(F)(F)F)nc(N3CCOCC3)n2)CC1"
957 nM

====

# tgt: PI3K-β kinase (p110β/p85α) (Homo sapiens, UniProt P42338)
# Construct: purchased Millipore 14-603
# Sequence (P42338 whole entry): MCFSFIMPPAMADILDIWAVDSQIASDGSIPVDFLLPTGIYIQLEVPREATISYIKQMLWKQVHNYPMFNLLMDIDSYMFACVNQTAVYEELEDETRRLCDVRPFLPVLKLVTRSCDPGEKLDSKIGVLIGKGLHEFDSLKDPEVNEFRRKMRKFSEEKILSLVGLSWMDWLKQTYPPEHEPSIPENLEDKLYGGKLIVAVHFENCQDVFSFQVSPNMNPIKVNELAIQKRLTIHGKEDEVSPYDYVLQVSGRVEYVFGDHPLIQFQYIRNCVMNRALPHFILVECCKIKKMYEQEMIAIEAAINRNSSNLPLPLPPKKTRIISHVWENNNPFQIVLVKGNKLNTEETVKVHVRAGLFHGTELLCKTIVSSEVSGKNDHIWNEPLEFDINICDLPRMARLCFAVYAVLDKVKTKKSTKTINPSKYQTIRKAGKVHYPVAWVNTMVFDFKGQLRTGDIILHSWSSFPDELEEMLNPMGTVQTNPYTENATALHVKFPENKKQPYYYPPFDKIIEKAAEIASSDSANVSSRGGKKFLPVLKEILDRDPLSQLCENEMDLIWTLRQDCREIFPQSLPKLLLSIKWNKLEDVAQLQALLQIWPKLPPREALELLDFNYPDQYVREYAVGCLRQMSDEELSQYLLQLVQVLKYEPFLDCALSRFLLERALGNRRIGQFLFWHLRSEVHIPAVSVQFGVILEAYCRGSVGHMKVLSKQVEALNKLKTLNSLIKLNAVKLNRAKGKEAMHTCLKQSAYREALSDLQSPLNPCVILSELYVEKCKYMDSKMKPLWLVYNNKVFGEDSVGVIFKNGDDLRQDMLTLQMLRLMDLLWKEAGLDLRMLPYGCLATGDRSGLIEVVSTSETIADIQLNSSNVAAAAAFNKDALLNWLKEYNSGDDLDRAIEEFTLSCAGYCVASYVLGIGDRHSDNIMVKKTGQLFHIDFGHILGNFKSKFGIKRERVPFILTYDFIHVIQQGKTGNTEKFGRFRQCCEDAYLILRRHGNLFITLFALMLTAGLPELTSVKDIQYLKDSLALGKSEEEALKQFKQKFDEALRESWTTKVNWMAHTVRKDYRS
# Sequence (P27986 whole entry partner): as the sequence (P27986 whole entry partner) above
# measurement.protocol: Determination of PI3K kinase activity (ADP Transcreener, fluorescence polarization)
# Assay type: biochemical
# recorded.conditions: Table 1; ATP 10 μM; read-out: PI3K-β/nM (IC50 of inhibitory activity against PI3K kinase)
measurement.name: IC50 (nM)
Number only, in nM; omit the unit.

Which IC50 value belongs to "C[C@H]1COCCN1c1nc(-c2cnc(N)cc2C(F)(F)F)cc(C(C)(C)S(C)(=O)=O)n1" ?
82

Which IC50 value belongs to "C[C@H]1COCCN1c1nc(-c2cnc(N)cc2C(F)(F)F)cc(C2(S(C)(=O)=O)CCCC2)n1" ?
1210

Which IC50 value belongs to "COC(C)(C)c1cc(-c2cnc(N)cc2Cl)nc(N2CCOC[C@@H]2C)n1" ?
943
